system.under.test: Serine/threonine-protein kinase pim-3 (Homo sapiens, UniProt Q86V86)
experiment.summary: Inhibition of human full length Pim-3 using RSRHSSYPAGT as substrate assessed as residual activity after 30 mins in presence of [gamma-33P]ATP
quantity.kind: pIC50
The quantity pIC50 is defined as the negative base-10 logarithm of the molar concentration.

Query: Fill in the blank: the reported pIC50 of "CCCc1c[nH]c2c([N+](=O)[O-])cc3cn[nH]c3c12" is ____.
Result: 6.59

Query: Fill in the blank: the reported pIC50 of "Nc1cc2cn[nH]c2c2cc[nH]c12" is ____.
Result: 7.48

Query: Fill in the blank: the reported pIC50 of "C[Si](C)(C)c1cc2c([nH]1)c([N+](=O)[O-])cc1cn[nH]c12" is ____.
Result: 6.33

Query: Fill in the blank: the reported pIC50 of "CCCc1c(C(=O)OC)[nH]c2c([N+](=O)[O-])cc3cn[nH]c3c12" is ____.
Result: 6.26
